tested on: OVCAR-8 ovarian; assay: NCI-60 one-dose screen, 48 h (100 = growth as untreated, 0 = no growth, -100 = all killed); conditions: 10 µM unless noted
About 83,000 compounds went through this panel and 20% of them were active in at least one assay; those are over-represented in the sample as a whole. Calls of active or inactive are those of the source. How the source made its calls: active means growth percent below 10; inactive means the rest.
Parameter growth: see the listing below.

Worked cases, growth given:
CC(C)=CCc1cc2c(cc1O)C1=C(C(=O)C3=C(NCCS3(=O)=O)C1=O)C(C=C(C)C)O2 (configuration not stated) = 13.4% (inactive)
CO[C@H]1C[C@@H]2CC[C@@H](C)[C@@](O)(O2)C(=O)C(=O)N2CCCC[C@H]2C(=O)O[C@H]([C@H](C)C[C@@H]2CC[C@@H](OP(C)(C)=O)[C@H](OC)C2)CC(=O)[C@H](C)/C=C(\C)[C@@H](O)[C@@H](OC)C(=O)[C@H](C)C[C@H](C)\C=C/C=C/C=C/1C = 34.3% (inactive)
CC(C)[C@@H]1CC[C@@H]2[C@@H]1[C@H](OC(=O)/C=C/c1ccccc1)[C@]1(C(C)C)C[C@@H](OC(=O)CO)[C@@]2(C)O1 = 16.5% (inactive)
CCc1cnn2c(NCc3ccc[n+]([O-])c3)cc(N3CCCC[C@H]3CCO)nc12 = -6.3% (active)
CNC(=O)c1cc(Oc2ccc(NC(=O)Nc3cc(C(C)(C)C)nn3-c3ccc4ncccc4c3)c(F)c2)ccn1 = -30.2% (active)

// sample "Nc1c(C(=O)c2ccccc2)sc2nc(-c3cccs3)cc(-c3cccs3)c12" , its growth was 54.8% (inactive)

// sample "CCN(CC)c1cc2oc3cc(N)cc(=N)c-3nc2cc1C" , its growth was 2.1% (active)

// sample Cc1nn(-c2nc3ccccc3[nH]2)c2c1C(c1ccc(OCc3ccc(F)cc3)cc1)CC(=O)N2 (configuration not stated) , its growth was 54% (inactive)

// sample "CCCCCc1ccc(C)cc1OC(=O)CCl" , its growth was 89.1% (inactive)

// sample "CN1CC[C@H](c2c(O)cc(O)c3c(=O)cc(-c4ccccc4Cl)oc23)[C@H](O)C1" , its growth was 7.4% (active)

// sample "COc1ccc2c(c1OC)C(=O)O[C@@H]2[C@H]1c2c(c(C#CC#Cc3ccc(F)c(F)c3)c3c(c2OC)OCO3)CCN1C" , its growth was 87.9% (inactive)
